- Test system: MDA-MB-468 breast
- ASSAY_TEXT: NCI tumour cell line growth inhibition, 48 h
Give measured GI50 for each item. Keep answers brief.

What does the data say about its GI50? Entry: O=c1cc(N/N=C/c2ccc(F)cc2)c2cc(Cl)ccc2[nH]1 13.3 µM

Entry [2H]C([2H])([2H])Oc1ccc2ncc(C#Cc3cncc(C(=O)Nc4ccc(CN5CCN(C)CC5)c(C(F)(F)F)c4)c3)n2n1 please 1.2 µM

Entry COc1cnc2c(c1)C(=O)c1c-2n(CCCNCCO)c(=O)c2ccncc12 please 0.283 µM

Entry COc1ccc(-c2nc(-c3nc4ccc(F)cc4[nH]3)c3ccccn23)cc1 please 4.12 µM

Entry Cc1cc(C2(c3cc(C)c(OCC(O)CNc4c(C)n(C)n(-c5ccccc5)c4=O)cc3C(C)C)OC(=O)c3ccccc32)c(C(C)C)cc1OCC(O)CNc1c(C)n(C)n(-c2ccccc2)c1=O (centres undefined) please 12.1 µM

Entry C=C1CCC2(C#N)[C@H]3[C@H](CC[C@@H]2C)[C@@H](C)C[C@@H](CC(C)(C)NC(=O)CN2CCC2=O)[C@H]13 (some centres undefined) please 3.22 µM

Entry Cc1cc(O)c(C2=NN(c3ccc(S(N)(=O)=O)cc3)C(c3ccc(Cl)cc3)C2)c(C)c1Cl (centres undefined) please 10.7 µM

Entry C#Cc1nc2ccccc2c(=O)[nH]1 please 0.199 µM

Entry CS(=O)(=O)Nc1cc(-c2ccc3ncc(C#N)c(NCc4ccccc4O)c3c2)cnc1Cl please 0.173 µM

###

- Tested on: MDA-MB-468 breast
- ASSAY_TEXT: NCI tumour cell line growth inhibition, 48 h
Give measured TGI for each item. Keep answers brief.
Please give a number only; it is taken to be in µM.

Entry O=C(Oc1ccc(CO[N+](=O)[O-])cc1)c1ccccc1 , system MDA-MB-468 breast: what TGI was measured? 0.332

Entry COc1ccc(C(O)c2cc3c(N)c(C(=O)Nc4cccc(Cl)c4)sc3nc2C)cc1 (stereo unspecified) please 28.4

Entry c1ccc(-c2nc(N3CCOCC3)c3c4c(sc3n2)CCCCCC4)nc1 please 19

Entry Cc1c2cc(Cl)c3ccccc3c2c[n+]2ccccc12 please 0.57
